- PROTOCOL_TEXT: protease stability score; higher = more stable; yeast display proteolysis, trypsin and chymotrypsin;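 also: log10 excess protease needed over predicted unfolded state with 0 meaning unfolded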
PROPERTY: protease stability score
# output: bare number, no unit

Tell us which protease stability score value is on record for DEEKLKRIWQEIMDVWRTNNEDRMTNLFDENATVVVGDETYRGREDVNKALHEFNKRVDNINVTRLDVDGDKANLKAELTYNGRTIDITLRITLRNGRIEEMTVDPEVMKTARS
0.71

Tell us which protease stability score value is on record for DSDAARILVEFWTALQKGDHDRLKQNMDPNAKMKIGDHTLHGREQIAEHATKLKREMRIDIRLKSFDDDGDHAILKFEMRVDVNGKPFSMDVTVNVKAHNGHLVKVNFRIPEKDLQRLNS
0.633

Tell us which protease stability score value is on record for DEKKLEEVAKKVMDAMRKGDSETLVKLGKPDVTFKVADIEFKGQDQLRKYYKLDQDVGVELHLKEEKKEGNKFTMVYDARFGGTQDTVEVEVEVKDEKVDKARAKFTEEYAKHIQKG
0.586

Tell us which protease stability score value is on record for DPKKLKEAVEKVIQAMEKGNVEEVVKLYKPDVKFVLGDQEFRGREDVKKQAKKFYTKGARFQLRKVEVKGDKVEVVVDVEVGGTRKTFKFTLKVEDDTVDEYEIRFTEEAKKAKEKG
0.839

Tell us which protease stability score value is on record for DHEAKEIAEKIQRALTSNDPDHLNRQLDPNVRLQIGDKEVEGRQEAHNWLQKVVDEQEISINISDINVNGNHIRIHAVVENQVNGRPFHYEVVIIIIIHNGRVRSQRYQLDEDQDRRIKQ
0.047
